Origin of measurements: patent US10800754B2

# system: human PRS protein (Homo sapiens, UniProt P07814)
# Construct: to construct His-Avi-hEPRS (998-1512) expression plasmid; His tag (N); Avi tag (N); TEV cleavage site (ENLYFQ/GS, encoded by forward primer hEPRS-TEV-NheF) (N); made in house; host or cells: E. coli BL21(DE3)
# Sequence (P07814 998-1512): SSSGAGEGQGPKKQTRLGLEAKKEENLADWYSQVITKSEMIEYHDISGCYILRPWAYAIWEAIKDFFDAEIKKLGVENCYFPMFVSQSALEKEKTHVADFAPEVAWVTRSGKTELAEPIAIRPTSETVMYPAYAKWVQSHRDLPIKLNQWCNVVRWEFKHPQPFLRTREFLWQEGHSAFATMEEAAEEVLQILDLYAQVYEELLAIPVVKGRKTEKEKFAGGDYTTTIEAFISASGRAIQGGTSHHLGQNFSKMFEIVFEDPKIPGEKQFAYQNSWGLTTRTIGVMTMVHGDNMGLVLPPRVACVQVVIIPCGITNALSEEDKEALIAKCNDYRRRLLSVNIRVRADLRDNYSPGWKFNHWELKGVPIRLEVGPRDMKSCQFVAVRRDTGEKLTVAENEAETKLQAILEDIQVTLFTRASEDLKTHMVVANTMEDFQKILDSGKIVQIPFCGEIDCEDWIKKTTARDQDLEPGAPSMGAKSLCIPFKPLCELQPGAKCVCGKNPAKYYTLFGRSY
# test: PRS inhibitory activity (ATP/[32P]pyrophosphate exchange enzyme reaction)
# Type: biochemical
# assay_conditions: 300 nM test compound; recombinant human PRS (EPRS 998-1512); read-out: inhibitory rate (%) of PRS
endpoint: inhibition at 0.3 µM (%)
Enter your answer as a number in %; do not include the unit.

Reference set (2 entries):
| structure_smiles | endpoint | endpoint_unit | readout_value |
| --- | --- | --- | --- |
| Cn1cc(-c2cc(F)cc(CC(=O)Nc3cc(N4CC[C@@](C#N)(C5CC5)C4=O)cc(Br)n3)c2)cn1 | inhibition at 0.3 µM | % | 100 |
| Cc1cc(N2CC[C@@](C#N)(C3CC3)C2=O)nc(NC(=O)Cc2cccc(-c3cnn(C)c3)c2)n1 | inhibition at 0.3 µM | % | 98 |

(Q) Item N#C[C@@]1(C2CC2)CCN(c2ccnc(NC(=O)Cc3ccccc3)c2)C1=O has what recorded inhibition at 0.3 µM?
(A) 85

(Q) Same again, this time with CCn1cc(-c2cccc(CC(=O)Nc3cc(N4CC[C@@](C#N)(C5CC5)C4=O)ccn3)c2)cn1
(A) 99

(Q) How about N#C[C@@]1(C2CC2)CCN(c2ccnc(NC(=O)Cc3cccc(-c4cnn(C5CCCC5)c4)c3)c2)C1=O ?
(A) 99

(Q) Next record, please: N#C[C@@]1(C2CC2)CCN(c2ccnc(NC(=O)Cc3cccc(-c4cnn(CC(C(F)(F)F)C(F)(F)F)c4)c3)c2)C1=O
(A) 93

(Q) Cool, now N#C[C@@]1(C2CC2)CCN(c2ccnc(NC(=O)Cc3cccc(-c4cnn(CC5CC5)c4)c3)c2)C1=O
(A) 99
